target: human MC4R receptor (human, UniProt P32245 1-332); experiment: cell-based or functional assay
Sequence (P32245 whole entry): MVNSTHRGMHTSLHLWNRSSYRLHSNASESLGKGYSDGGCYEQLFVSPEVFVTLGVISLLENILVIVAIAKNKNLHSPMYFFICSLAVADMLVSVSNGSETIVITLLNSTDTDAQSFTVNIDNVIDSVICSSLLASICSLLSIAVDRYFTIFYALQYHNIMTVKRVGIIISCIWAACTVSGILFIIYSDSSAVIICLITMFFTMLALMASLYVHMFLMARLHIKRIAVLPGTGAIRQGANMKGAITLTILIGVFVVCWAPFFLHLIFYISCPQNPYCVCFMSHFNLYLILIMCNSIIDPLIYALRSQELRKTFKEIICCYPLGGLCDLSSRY
Positions of bridges follow the written chain, without caps; N, C: chain ends. Non-standard residues stand in square brackets, D forms with d. 4Pal = N[C@@H](Cc1ccncc1)C(=O)O; Nle = CCCC[C@H](N)C(=O)O
Attribute: % max activation
Your answer should be a plain number; it is taken to be in %.

Data request: Quick one: give measured % max activation for Ac-R[Nle]C[4Pal][dF]RWC-NH2 (disulfide 3-8; SMILES CCCC[C@H](NC(=O)[C@H](CCCNC(=N)N)NC(C)=O)C(=O)N[C@H]1CSSC[C@@H](C(N)=O)NC(=O)[C@H](Cc2c[nH]c3ccccc23)NC(=O)[C@H](CCCNC(=N)N)NC(=O)[C@@H](Cc2ccccc2)NC(=O)[C@H](Cc2ccncc2)NC1=O) [CTX-1621]
Data returned: 92
